Values from patent US12397058B2

system: VZV Ellen; test: microbe, parasite or virus in culture; assay type: cell-based, Vericella Zoster Virus; details: VZV Ellen, HFF cells
Property Label: TI (therapeutic index derived from EC50/CC50)
Just the number, please.

Note to self: TI (therapeutic index derived from EC50/CC50) recorded for `N.Nc1ccn(C[C@@H](CO)OCP(=O)(O)OCCCS(=O)(=O)CCCCCCCCCCCCCC2CCC2)c(=O)n1` was 31

More entries:
Note to self: TI (therapeutic index derived from EC50/CC50) recorded for `N.Nc1ccn(C[C@@H](CO)OCP(=O)(O)OCCCS(=O)(=O)CCCCCCCCCCC2CCC2)c(=O)n1` was 25

Note to self: TI (therapeutic index derived from EC50/CC50) recorded for `CC1(CCCCCCCCCCCCS(=O)(=O)CCCOP(=O)(O)CO[C@H](CO)Cn2cnc(N)cc2=O)COC1` was 225

Note to self: TI (therapeutic index derived from EC50/CC50) recorded for `N.Nc1ccn(C[C@@H](CO)OCP(=O)(O)OCCCS(=O)(=O)CCCCCCCCCCCCC2CCC2)c(=O)n1` was 23
